Active and inactive are the calls of the source.
Let's go through some Kd measurements on Ribosomal protein S6 kinase alpha-6 (Homo sapiens) together.
Sequence (Q9UK32 whole entry): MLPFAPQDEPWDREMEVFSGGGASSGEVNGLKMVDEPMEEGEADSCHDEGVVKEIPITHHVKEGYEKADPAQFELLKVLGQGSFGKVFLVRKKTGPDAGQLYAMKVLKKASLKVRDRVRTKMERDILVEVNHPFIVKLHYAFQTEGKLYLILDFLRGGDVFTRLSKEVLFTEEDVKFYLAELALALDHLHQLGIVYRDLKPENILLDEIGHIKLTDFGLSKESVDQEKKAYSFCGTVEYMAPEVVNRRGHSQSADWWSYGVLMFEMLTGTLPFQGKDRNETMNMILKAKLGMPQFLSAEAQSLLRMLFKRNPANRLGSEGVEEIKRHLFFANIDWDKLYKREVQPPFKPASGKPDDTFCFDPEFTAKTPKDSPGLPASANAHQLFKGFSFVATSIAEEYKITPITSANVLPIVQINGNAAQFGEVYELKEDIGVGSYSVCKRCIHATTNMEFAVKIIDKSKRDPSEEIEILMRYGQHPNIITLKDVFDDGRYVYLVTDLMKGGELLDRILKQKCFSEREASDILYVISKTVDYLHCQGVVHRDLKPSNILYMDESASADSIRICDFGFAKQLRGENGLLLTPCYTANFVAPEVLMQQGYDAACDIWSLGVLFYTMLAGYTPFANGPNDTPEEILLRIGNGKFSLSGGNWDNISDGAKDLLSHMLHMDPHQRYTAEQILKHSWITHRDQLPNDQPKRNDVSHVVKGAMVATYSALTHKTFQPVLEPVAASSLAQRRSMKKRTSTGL

>>> reported_measurement("CCn1c(=O)c(-c2cc[nH]n2)cc2c(C)nc(N)nc21")
"> 30 µM (inactive)"
>>> reported_measurement("CC(=O)Nc1cccc(-n2c(=O)n(C3CC3)c(=O)c3c(Nc4ccc(I)cc4F)n(C)c(=O)c(C)c32)c1")
"> 30 µM (inactive)"
>>> reported_measurement("COCCNCc1ccc(-c2cc3nccc(Oc4ccc(NC(=S)NC(=O)Cc5ccc(F)cc5)cc4F)c3s2)nc1")
"> 30 µM (inactive)"
>>> reported_measurement("CNC(=O)CN1CCC(Oc2cc3c(Nc4cccc(Cl)c4F)ncnc3cc2OC)CC1")
"> 30 µM (inactive)"
>>> reported_measurement("C[C@@H](c1ccc2nccn2c1)n1nnc2ncc(-c3cnn(C)c3)nc21")
"> 30 µM (inactive)"
>>> reported_measurement("CN1N=C(N)c2cn([C@@H]3O[C@H](COP(=O)(O)O)[C@@H](O)[C@H]3O)c3ncnc1c23 [TRICIRIBINE PHOSPHATE]")
"> 30 µM (inactive)"

For the molecule shown here, "CCc1cnn2c(NCc3ccc[n+]([O-])c3)cc(N3CCCC[C@H]3CCO)nc12" , give the reported Kd.
> 30 µM (inactive)

For the molecule shown here, "C=CC(=O)N1CCC(Oc2cc3c(Nc4ccc(Cl)c(Cl)c4F)ncnc3cc2OC)CC1" , give the reported Kd.
> 30 µM (inactive)
